Reference source: patent EP1745781A1

- study-target: CB2-Receptor (Homo sapiens)
- Sequence (P34972 whole entry): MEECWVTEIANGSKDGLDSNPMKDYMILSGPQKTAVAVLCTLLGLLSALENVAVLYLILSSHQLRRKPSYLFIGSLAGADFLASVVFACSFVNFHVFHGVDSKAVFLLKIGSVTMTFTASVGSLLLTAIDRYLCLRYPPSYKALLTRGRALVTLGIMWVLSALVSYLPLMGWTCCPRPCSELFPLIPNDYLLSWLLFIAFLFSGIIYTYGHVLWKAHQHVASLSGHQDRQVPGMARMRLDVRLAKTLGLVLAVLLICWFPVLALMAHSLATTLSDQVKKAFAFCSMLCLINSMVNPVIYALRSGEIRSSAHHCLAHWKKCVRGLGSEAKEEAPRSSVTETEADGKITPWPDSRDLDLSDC
pKi: −log10 of the molar value.
readout: pKi

Query string: I am curious: what pKi value has been reported for O=C(NN1CCCCC1)C1=NN(c2ccc(Cl)cc2Cl)C(c2ccc(Cl)cc2)C1 (stereo not shown) [Example 1] ?
Result string: < 6.00

---

- study-target: CB1-Receptor (Homo sapiens)
- Sequence (P21554 whole entry): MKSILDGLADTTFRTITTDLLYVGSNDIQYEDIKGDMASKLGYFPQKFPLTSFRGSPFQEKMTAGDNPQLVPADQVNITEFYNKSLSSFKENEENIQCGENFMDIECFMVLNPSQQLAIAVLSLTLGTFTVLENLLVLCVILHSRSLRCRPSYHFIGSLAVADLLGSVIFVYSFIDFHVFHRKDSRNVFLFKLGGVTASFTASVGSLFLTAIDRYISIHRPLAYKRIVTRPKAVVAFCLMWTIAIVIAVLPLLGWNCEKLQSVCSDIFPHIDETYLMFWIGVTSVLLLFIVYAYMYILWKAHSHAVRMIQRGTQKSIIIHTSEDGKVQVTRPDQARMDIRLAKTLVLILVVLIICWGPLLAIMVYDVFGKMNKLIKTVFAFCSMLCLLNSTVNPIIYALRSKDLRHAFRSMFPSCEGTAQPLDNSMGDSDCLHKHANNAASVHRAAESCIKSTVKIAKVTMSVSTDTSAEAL
readout: Ki

Query string: Kindly state the measured Ki obtained for O=C(NN1CCCCC1)C1=NN(c2ccc(Cl)cc2Cl)C(c2ccc(Cl)cc2)C1 (stereo not shown) [Example 1] with CB1-Receptor (Homo sapiens).
Result string: < 25 nM
